Values were extracted from ChEMBL document CHEMBL1124604.

Recorded IC50 values for a group of molecules are listed next.
Test: In vitro inhibition of [3H]flunitrazepam binding to GABA-A receptor of rat cerebral cortex membranes
Assay type: cell membranes, Membrane
measured.endpoint: IC50 (nM)

[[record]]
smiles_code = "CNC(=O)c1cc2c(cn1)[nH]c1ccccc12"
measured_endpoint = "IC50"
measurement_units = "nM"
relation_operator = "="
test_value = 197

[[record]]
smiles_code = "O=C1OCCc2c1[nH]cc1nc3ccccc3c2-1"
measured_endpoint = "IC50"
measurement_units = "nM"
relation_operator = "="
test_value = 42

[[record]]
smiles_code = "CCc1c(C(=O)NC)[nH]cc2nc3ccccc3c1-2"
measured_endpoint = "IC50"
measurement_units = "nM"
relation_operator = ">"
test_value = 10000

[[record]]
smiles_code = "COC(=O)c1cc2c(cn1)[nH]c1ccccc12"
measured_endpoint = "IC50"
measurement_units = "nM"
relation_operator = "="
test_value = 3.5

[[record]]
smiles_code = "CCc1c(C(=O)OC)[nH]cc2nc3ccccc3c1-2"
measured_endpoint = "IC50"
measurement_units = "nM"
relation_operator = "="
test_value = 27

[[record]]
smiles_code = "O=C1NCCc2c1[nH]cc1nc3ccccc3c2-1"
measured_endpoint = "IC50"
measurement_units = "nM"
relation_operator = "="
test_value = 150

[[record]]
smiles_code = "CCOC(=O)c1cc2c(cn1)[nH]c1ccccc12"
measured_endpoint = "IC50"
measurement_units = "nM"
relation_operator = "="
test_value = 7

